Conditions: buffer, pH 2
attribute_measured: log K
Form: value (number only, do not type unit).

Consider the worked cases shown below.
CC(=O)Oc1c(C)cc(OCC(O)CNC(C)C)c(C)c1C (stereo unspecified): -0.5
CC(C)NCC(O)COc1cccc2[nH]c3ccccc3c12 (stereo unspecified): -0.01
NCCO: 1.1
C1COCCN1: 0.48
CC(C)NCC(O)COc1cccc2[nH]ccc12 (stereo unspecified): 0.08

Alright, here's another compound for you.
Query :: Can you share its log K? I mean this compound: COCCc1ccc(OCC(O)CNC(C)C)cc1 (stereo unspecified)
Result :: -0.27

* * *

Experiment: physchem
Conditions: octanol/water
# logP values compiled below
Form: value (number only, do not type unit).

Query :: Can you share its logP? I mean this compound: C1COC(NC(C2CC2)C2CC2)=N1 [RILMENIDINE]
Result :: 1.7

* * *

Conditions: buffer, pH 2
attribute_measured: log K
Form: value (number only, do not type unit).

CCN(CC)CCOC(=O)c1ccc(N)cc1: -0.26
C=CCOc1ccccc1OCC(O)CNC(C)C (configuration not stated): -0.34
CCCCN: 0.29

Query :: Can you share its log K? I mean this compound: `CC(C)(C)NC[C@H](O)COc1ccccc1C1CCCC1`
Result :: -0.51

Query :: Can you share its log K? I mean this compound: COc1ccccc1OCCNCC(O)COc1cccc2[nH]c3ccccc3c12 (configuration not stated)
Result :: -0.2

Query :: Can you share its log K? I mean this compound: CC(C)(C)NCC(O)COc1cccc2c1CC(O)C(O)C2 (configuration not stated)
Result :: 0.5

Query :: Can you share its log K? I mean this compound: CC([C@H](O)c1ccccc1)N(C)C (some centres not stated)
Result :: -0.14

Query :: Can you share its log K? I mean this compound: CCCNC(C)C(=O)Nc1ccccc1C (configuration not stated)
Result :: -0.17

Query :: Can you share its log K? I mean this compound: `CN(C)Cc1ccccc1`
Result :: -0.23

Query :: Can you share its log K? I mean this compound: Cc1cccc(C)c1NC(=O)C1CCCCN1C (configuration not stated) [MEPIVACAINE]
Result :: -0.18

Query :: Can you share its log K? I mean this compound: `CN1CCc2cccc3c2[C@H]1Cc1ccc(O)c(O)c1-3`
Result :: 0.33

Query :: Can you share its log K? I mean this compound: `C1COC(NC(C2CC2)C2CC2)=N1`
Result :: -0.41

Query :: Can you share its log K? I mean this compound: `CC(C)(C)NC[C@H](O)COc1nsnc1N1CCOCC1`
Result :: 0.08

Query :: Can you share its log K? I mean this compound: `O=C1C[C@@H]2OCC=C3CN4CC[C@]56c7ccccc7N1[C@H]5[C@H]2[C@H]3C[C@H]46`
Result :: 0.06

Query :: Can you share its log K? I mean this compound: `COC(=O)[C@@H](N)Cc1ccc(O)cc1`
Result :: 0.57

Query :: Can you share its log K? I mean this compound: `CN1CCC[C@H]1c1cccnc1`
Result :: 0.14

Query :: Can you share its log K? I mean this compound: CC(C)NCC(O)COc1cccc2ccccc12 (configuration not stated)
Result :: -0.19

Query :: Can you share its log K? I mean this compound: CC(C)NCC(O)COc1ccc(COCCOC(C)C)cc1 (configuration not stated)
Result :: -0.41
